- experimentalTarget: aromatase (CYP19) (Homo sapiens, UniProt P11511)
- Construct: gene CYP19A1
- Sequence (P11511 whole entry): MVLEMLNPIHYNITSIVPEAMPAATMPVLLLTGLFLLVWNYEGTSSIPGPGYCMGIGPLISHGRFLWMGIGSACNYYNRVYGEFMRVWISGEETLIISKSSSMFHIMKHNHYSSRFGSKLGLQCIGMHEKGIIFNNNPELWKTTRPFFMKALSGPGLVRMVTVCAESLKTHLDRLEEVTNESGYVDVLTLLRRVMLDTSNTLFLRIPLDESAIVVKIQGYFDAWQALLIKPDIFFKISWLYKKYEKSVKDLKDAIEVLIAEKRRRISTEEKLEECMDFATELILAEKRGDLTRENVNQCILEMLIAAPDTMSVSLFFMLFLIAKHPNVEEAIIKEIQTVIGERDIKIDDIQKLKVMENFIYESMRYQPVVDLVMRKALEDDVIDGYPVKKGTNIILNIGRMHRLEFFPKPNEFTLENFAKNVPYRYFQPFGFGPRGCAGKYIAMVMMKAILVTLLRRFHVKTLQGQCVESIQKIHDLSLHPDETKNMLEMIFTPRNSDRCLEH
- measurementProtocol: fluorogenic aromatase activity assay (Abcam kit), dose-response […]
- Type: biochemical
Entries and their IC50 values follow.
Reply numerically in µM, unit not repeated.

COc1ccc(-n2nnc(C(C)=NN=c3sc(C(C)=O)nn3-c3ccccc3)c2C)cc1 : 3.62

Would you kindly look at the next entry?
Problem: // IC50 lookup, key: `CCOC(=O)c1nn(-c2ccc(C)cc2)c(=NN=C(C)c2nnn(-c3ccc(OC)cc3)c2C)s1`
Result: 2.99
